Reference for the values: the RNAGym collection of RNA variant scans (doi:10.1093/molbev/msab373)

B1: Azoarcus group I ribozyme (parent)
chain: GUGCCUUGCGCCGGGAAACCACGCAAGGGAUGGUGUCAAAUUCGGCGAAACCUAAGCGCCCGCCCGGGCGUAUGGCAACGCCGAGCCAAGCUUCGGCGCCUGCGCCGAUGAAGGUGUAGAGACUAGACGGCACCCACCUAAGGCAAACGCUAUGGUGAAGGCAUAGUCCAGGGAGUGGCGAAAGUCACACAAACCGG

Variants of: B1
methodSummary: reverse-splicing fitness (ratio to wild type); higher = more active; in vitro selection; Mg2+ level not given
assayMetric: reverse-splicing fitness
Answers are plain numbers.

{"mutationNotation": "A120G A145C C150A U176C", "reverse-splicing fitness": 0.0279}
{"mutationNotation": "C82U A111U A120C C150A C169G U176C", "reverse-splicing fitness": 0.0181}
{"mutationNotation": "C82G A111G A120U A145G U176C", "reverse-splicing fitness": 0.0283}
{"mutationNotation": "C82U A111G A120U A145G C150G U176C", "reverse-splicing fitness": 0.00719}
{"mutationNotation": "A111C A145G C150A C169U U176G", "reverse-splicing fitness": 0.00843}
{"mutationNotation": "C82A A120C C169G", "reverse-splicing fitness": 0.00961}
{"mutationNotation": "A111G A120C A145C U176G", "reverse-splicing fitness": 0.129}
{"mutationNotation": "C82U A111G A120C A145C C150A C169A U176C", "reverse-splicing fitness": 0.00523}

Give one value of reverse-splicing fitness per listed variant.
1. C82A A120C A145C C169A U176A
2. C82G A111C A120C A145U C150G C169U U176G
3. A111U A120G A145G C150G C169A U176C
4. C82G A145C U176C
5. C82A A111G A120U A145U C150A C169G
6. C82U A120C A145U C150A C169G U176C

1. 0.015
2. 0.0068
3. 0.0131
4. 0.35
5. 0.00258
6. 0.0081
